B1: Osa-1-4 twister ribozyme (parent)
chain: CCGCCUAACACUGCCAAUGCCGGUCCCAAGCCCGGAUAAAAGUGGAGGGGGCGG

# Variants of: B1
# Assay name: self-cleavage, relative activity (ratio to wild type); higher = more cleavage; co-transcriptional
Given measured self-cleavage, output YES if it is greater than or equal to 0.08 and NO if not.

Determine whether this variant has self-cleavage no lower than 0.08: CCGCCUAACACUGCCAAUCCCGGUCCCAAGCCCCGAUAAAAGUGGAGGGGGCGG [G19C G34C] NO

Reported self-cleavage at or above 0.08? CCGCCUAACACCGCCAAUGCCGGUCCCAAGCCCGGAUCAAAGUGGAGGGGGCGG [A38C U12C] YES

Decide: self-cleavage of CCGCCUAACACUGCCAAUGCGGGUCCCAAGCCCGGAUAAAAGUGGAGGUGGCGG [C21G G49U] >= 0.08? NO

Does the reported self-cleavage for CCGCCUAACACUGCCAAUACCGGUCCCAAGCCCGGAUAAAAGAGGAGGGGGCGG [G19A U43A] fall at or above the 0.08 mark? YES

Test whether the variant CCGCCUAACACUGCCAAUGCCGGUCACAAGCCCGGAUAAAAGUGGCGGGGGCGG [A46C C26A] records self-cleavage of 0.08 or higher. NO

Assess whether reported self-cleavage for CCGCCUAACACUGCCAAUGCCGGUCCCAAGCCCGGAUAAAAGUGGAGGCGCCGG [G49C G51C] sits at 0.08 or higher. NO

Would you say CCGCCUAAGACUGCCAAUGCCGGUCCCAAACCCGGAUAAAAGUGGAGGGGGCGG [C9G G30A] shows self-cleavage at minimum 0.08? NO

Decide: is the reported value of self-cleavage for CCGCCUAACACUUCCAAUGCCGGUCCCAAGCCCGGAUAAAAGUGGAGGGGGCGA [G13U G54A] equal to or greater than 0.08? NO

Is it the case that CCGCCUAACACUGCCAAUGCCGGUCGCAAGCCCGGAUAAAAGUGGAGAGGGCGG [C26G G48A] has self-cleavage reaching or exceeding 0.08? NO

Can CCGCCUAACACUGCCAAUGCCGGUCCCUAGCCCGGAUAAAAGUGGCGGGGGCGG [A28U A46C] be said to have self-cleavage at or above 0.08? NO

State whether the measured self-cleavage reaches 0.08, counting equality as reaching it, for CCGCCUAACACUGCCAAUGCCGGUCCCGAGCCGGGAUAAAAGUGGAGGGGGCGG [A28G C33G] NO

Could you verify whether the entry CCGCCUAACACUGCCAAUGCCGGUCCCAAGGCCGGAUAAAGGUGGAGGGGGCGG [A41G C31G] shows self-cleavage of no less than 0.08? YES

Reported self-cleavage at or above 0.08? CCGCCUAACACAGCCAAGGCCGGUCCCAAGCCCGGAUAAAAGUGGAGGGGGCGG [U12A U18G] YES

Hello, I need to know if CCGCCUAACACUGCCAAUGCCGGUCCCAAACCCGGAUAAAAGUGGAGGGGUCGG [G30A G51U] has measured self-cleavage not below 0.08. Thanks! NO

# check: self-cleavage of CCGCCUAACACUGCCAAUGCCGGUCCCCAGCCCGGUUAAAAGUGGAGGGGGCGG [A28C A36U] is greater than or equal to 0.08 YES
